Catalogue of GI50 values
Tested on: K562
Assay: NCI tumour cell line growth inhibition, 48 h
Active and inactive are the calls of the source. Rule as the data show it: active = GI50 up to about 1.1 µM and inactive = higher.

compound: Cc1c(Cl)c(S(N)(=O)=O)cc(S(N)(=O)=O)c1NC(=O)c1ccc(Cl)cc1
GI50: > 100 µM (inactive)
--
compound: CC(=O)N1C2=CCCC2(C)c2ccccc21 (stereo unspecified)
GI50: 33.8 µM (inactive)
--
compound: COc1cc(O)c2c(c1)C(=O)C1=C(C2=O)C(O)C[C@@](C)(O)C1 (stereo partly specified)
GI50: 0.457 µM (active)
--
compound: CSCCC(NC(=O)OCc1ccccc1)NC(=O)OCc1ccccc1
GI50: > 100 µM (inactive)
--
compound: COCCCNC(=O)C1=C(C)NC(C)=C(C(=O)NCCCOC)C1
GI50: 46 µM (inactive)
--
compound: O=P(c1ccccc1)(c1ccccc1)C(NCc1ccccc1)c1ccc(F)cc1 (stereo unspecified)
GI50: 18.7 µM (inactive)
